tested on: DIV17; experiment: qHTS profiling for inhibitors of Plasmodium falciparum proliferation (AID 504749); further: nearly all actives have a fitted effect of over 60% in size; details: P. falciparum in erythrocytes, SYBR Green DNA, 72 h; series mostly up to 28.7 µM
Records with an inconclusive call do not appear. Activity calls are given as the source filed them. The call rests on the fitted dose curve; in most records, active means well fitted inhibition curve with a large enough effect; inconclusive means small, poorly fitted or top-dose-only effect; inactive means flat fitted curve, though single readings scatter.
Classes to choose from: Yes for active, No for inactive

Answered cases to consult:
Status in this test for `CCCCCCCCCCCCCCCC[N+](C)(C)CC` ? Yes

Then what about the compound CCN(CC)CCOc1ccc(C(O)(Cc2ccc(Cl)cc2)c2ccc(C)cc2)cc1 (stereo unspecified) ? Yes

---
# fetch the recorded call for CCCCN1CCCC1C(=O)Nc1c(C)cc(C)cc1C (stereo unspecified) here No

---

assay: Stat Signaling Pathway (AID 446); details: ME-180 (cervical carcinoma) SIE beta-lactamase reporter, IL-6 stimulated, 5 h; at 17.2 µM (top of the series);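 further: ME-180 cervical cancer cells given 40 pM IL-6 alongside compound; SIE-controlled beta-lactamase reporter measured as 460/530 nm FRET emission ratio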
Results filed as inconclusive are left out. Calls of active or inactive are those of the source. The call rests on the fitted dose curve; in most records, active means well fitted curve in either direction with a large enough effect (not every such curve was filed as active); inconclusive means small, poorly fitted or top-dose-only effect, or another doubt; inactive means flat fitted curve, though single readings scatter.
Your reply should match one of these outcome classes. active, inactive

Solved entries (count: 2):
Call for entry `CCOC(=O)n1ccn(C)c1=S` : inactive

Same question for `CC(O)(P(=O)(O)O)P(=O)(O)O` please. inactive

For the next question, use this compound.
Could you kindly confirm the outcome this assay logged for `CN(C)CCCOc1nn(Cc2ccccc2)c2ccccc12` ? inactive

---

tested on: CP201; test: qHTS profiling for inhibitors of Plasmodium falciparum proliferation (AID 504749); further: nearly all actives have a fitted effect of over 60% in size; settings: P. falciparum in erythrocytes, SYBR Green DNA, 72 h; series mostly up to 28.7 µM
Records with an inconclusive call do not appear. Activity calls are given as the source filed them. The call rests on the fitted dose curve; in most records, active means well fitted inhibition curve with a large enough effect; inconclusive means small, poorly fitted or top-dose-only effect; inactive means flat fitted curve, though single readings scatter.
readout name: outcome

Below, 4 compounds whose answers are already recorded.
Reported outcome, compound `C[C@]12CCC(=O)C=C1CC[C@H]1[C@@H]3CC[C@](O)(C(=O)CO)[C@@]3(C)C[C@H](O)[C@@]12F` : ____ inactive

And what about the compound `COC(=O)[C@H]1[C@H]2C[C@H]3c4[nH]c5ccccc5c4CCN3C[C@H]2CC[C@@H]1O` ? inactive

Here is the next compound: `Cc1c(N(C)CS(=O)(=O)O)c(=O)n(-c2ccccc2)n1C` inactive

How about this compound: `C[C@@H]1C(=O)NC2=Nc3cccc(Cl)c3CN21` inactive

Pending compound:
Item `CCN(CC)CCNC(=O)COc1ccc(Cl)cc1` has what recorded outcome? inactive

---

Assay: Primary qHTS for inhibitors of La Crosse Virus (LACV) - induced cell death in SH-SY5Y cells (AID 1508616);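 further: top concentration of the series differs between compounds; higher means more rescue of cells from virus-induced death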
Conditions: SH-SY5Y LACV cytopathicity rescue, ATP luminescence, 6 d; series mostly up to 4.29 µM
Text: Assay Provider: Karin Peterson Ph.D. National Institute of Allergy and Infection Diseases, National Institute of Health […] 8. Detection; Luminescence; View […] 6. Dispense 24 microL/well of ATPLite 1step Luminescence assay system (PerkinElmer). […] 8. Read luminescence signal (Viewlux plate reader, PerkinElmer). […]
Inconclusive results are not listed. The source made the active and inactive calls. Calls come from the whole dose curve; as a rule, active = well fitted inhibition curve with a large enough effect; inconclusive = small, poorly fitted or top-dose-only effect; inactive = no such curve, though single readings can be large or run the other way.
readout name: activity change

For the molecule shown here, `Nc1ccn([C@@H]2O[C@H](CO)[C@@H](O)C2(F)F)c(=O)n1` , give the reported activity change. inactive

Entry to check: `NC(=O)CC[C@@H]1NC(=O)[C@H](Cc2ccccc2)NC(=O)[C@H](Cc2ccc(O)cc2)NC(=O)CCSSC[C@@H](C(=O)N2CCC[C@H]2C(=O)N[C@@H](CCCN=C(N)N)C(=O)NCC(N)=O)NC(=O)[C@H](CC(N)=O)NC1=O` inactive

Please give the result for `CC(C)N=C(N)/N=C(\N)Nc1ccc(Cl)cc1` too. inactive

Would you kindly repeat that for `N[C@H](CO)C(=O)O` ? inactive
